Item-by-item account of pKd
Molecular target: IL16_4, Q14005
Sequence (Q14005 1229-1329): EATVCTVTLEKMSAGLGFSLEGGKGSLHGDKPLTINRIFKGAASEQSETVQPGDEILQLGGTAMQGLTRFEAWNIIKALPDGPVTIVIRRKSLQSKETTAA
Test: holdup assay
Set-up: key: below the threshold = too weak to quantify, mostly under pKd 3.1 to 4
Settings: plain residues with an end cap or a label only (N-terminal biotin on a linker: ado-ado)
Answer with a bare number; do not write a unit.

| binder | assay.value |
| --- | --- |
| IDESKKEWLI [CNTNAP2, Q9UHC6] | 3.79 |
| KSRVAFFEEL [NF2, P35240] | 3.68 |
| PSVGSKKTVL [REELD1, A0A1B0GV85] | 3.6 |

Now examine the next entry.
// sample GTGYDRKDYV [CLDN3, O15551] , its pKd was 3.73
